assay: Brain-plasma Kp (CNS penetration); format: in vivo; conditions: rat, brain and plasma; species not given
property measured: Kp
Returns: the value as a bare number; no unit string appended.

Identify Kp associated with the compound Cn1nc(OCC2CCCOC2)c2ccc(NC(=O)c3ccc(F)cn3)cc21 (stereo not shown)
3.29
